study.target: P. falciparum apicoplast DNA polymerase (Pf-apPOL) (Plasmodium falciparum)
Sequence (Q8ILY1 entry or part of it): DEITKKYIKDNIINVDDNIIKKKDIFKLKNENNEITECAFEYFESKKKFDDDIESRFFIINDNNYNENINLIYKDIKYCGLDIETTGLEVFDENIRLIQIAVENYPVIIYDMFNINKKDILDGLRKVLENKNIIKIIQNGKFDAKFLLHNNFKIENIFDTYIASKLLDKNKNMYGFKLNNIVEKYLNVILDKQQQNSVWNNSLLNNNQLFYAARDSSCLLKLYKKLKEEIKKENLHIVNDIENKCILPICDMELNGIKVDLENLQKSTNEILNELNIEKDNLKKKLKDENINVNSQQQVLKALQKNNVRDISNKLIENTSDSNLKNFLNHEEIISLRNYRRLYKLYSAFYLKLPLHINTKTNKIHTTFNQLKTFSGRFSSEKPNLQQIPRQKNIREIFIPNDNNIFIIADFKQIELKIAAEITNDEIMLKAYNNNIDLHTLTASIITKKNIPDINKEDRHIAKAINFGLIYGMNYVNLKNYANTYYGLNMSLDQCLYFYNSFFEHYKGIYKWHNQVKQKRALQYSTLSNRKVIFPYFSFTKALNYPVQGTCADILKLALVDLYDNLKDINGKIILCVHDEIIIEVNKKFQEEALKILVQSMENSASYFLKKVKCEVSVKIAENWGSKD
protocol: Fluorescence-based high-throughput DNA polymerase assay (molecular beacon), primary screen and dose-response;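 also: test concentration in µM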
Type: biochemical
assay.context: conc. 80; 180'; DRC-2
assay.readout: % inhibition apPOL 180' (%)
Numbers only, in %.

Consider the worked cases shown below.
{"molecule": "Cc1cc(C)cc(-n2nc3c(c2NC(=O)c2ccco2)CSC3)c1", "assay.readout": "% inhibition apPOL 180'", "units.text": "%", "observed.value": 74}
{"molecule": "O=C1C(=Cc2ccncc2)Oc2c1ccc1c2CN(Cc2ccc3c(c2)OCO3)CO1", "assay.readout": "% inhibition apPOL 180'", "units.text": "%", "observed.value": 35}
{"molecule": "O=C(Nc1cccc(Cl)c1)Nc1nnc(-c2ccncc2)s1", "assay.readout": "% inhibition apPOL 180'", "units.text": "%", "observed.value": 65}
{"molecule": "O=C(CSc1nc2ccccc2s1)Nc1ncc([N+](=O)[O-])s1", "assay.readout": "% inhibition apPOL 180'", "units.text": "%", "observed.value": -23}
{"molecule": "Cc1cc(C)c(O)c(/N=C/c2cc([N+](=O)[O-])cc(Br)c2O)c1", "assay.readout": "% inhibition apPOL 180'", "units.text": "%", "observed.value": 75}
{"molecule": "O=C(NCC1CCN(C2CCCC2)CC1)C(=O)NC1CCCC1", "assay.readout": "% inhibition apPOL 180'", "units.text": "%", "observed.value": 34}
{"molecule": "COc1ccc(C)cc1NC(=O)Cn1ccc2c(=O)[nH]ccc21 [Molecule 15, COc1ccc(cc1NC(=O)Cn1ccc2c1cc[nH]c2=O)C]", "assay.readout": "% inhibition apPOL 180'", "units.text": "%", "observed.value": 64}

# value lookup — system P. falciparum apicoplast DNA polymerase (Pf-apPOL) (Plasmodium falciparum), readout % inhibition apPOL 180', item O=C(CSc1nnc(-c2ccncc2)[nH]1)c1ccc(O)c(O)c1
80
